The origin of these recorded values is the supplement of paper PMC9170038.

system: MS2 coat protein; test: apparent KD of MS2 coat protein; higher = weaker reporter binding; details: Eterna round: R107; input ligand: tryptophan 2.4 mM
Parameter: apparent KD of MS2 coat protein (µM)
Express the result in µM but write the number alone.

// below: answered sequences
Sequence data: GCGAUGGAGCGAAGGAGCGGCUAAAUGUAACACAUGAGGAUCACCCAUGUUCCAAGAUGUGGCCAGGUAGGUCGCGCUCCAUCGC [SSAB NP+V+V2 #15]
System under test: MS2 coat protein
apparent KD of MS2 coat protein, µM: 0.144
//
Sequence data: CCUGCGUUUCUUCUUUCGCAGGAGGAUGAUACCAGUAGGGAAACCUACCCUUGGCAGCAUGGGACAUGAGGAUCACCCAUGUGGA [SSThA NP+V+V2 #1]
System under test: MS2 coat protein
apparent KD of MS2 coat protein, µM: 0.43
//
Sequence data: GUGGGACAUGAGGAUCACCCAUGUGACGAUACCAGUCAAUUGAUGGACCCUUGGCAGCGUUGGUAUUGCGGGUAGGCGAGAUAAG [theeternabot_sameState_MS2_Theo_A_3]
System under test: MS2 coat protein
apparent KD of MS2 coat protein, µM: 0.0404
//
Sequence data: CACAUGAGGAUCACCCAUGUCUGAACUGAAGGAGCGCUAAAUAAGGCAGGUAGGUCGCGGAAUUUUGUGUGCAUAUGCAUAUGGG [9.M]
System under test: MS2 coat protein
apparent KD of MS2 coat protein, µM: 0.0288
//
Sequence data: GACAUGAGGAUCACCCAUGUGUAACCAGAAGGAGCGUGCGAAAGCACAGGUAGGUCGCUGGUGGGUUUAGGUUUAGUAGGUGUUC [SSAA NP+V+V2 #3]
System under test: MS2 coat protein
apparent KD of MS2 coat protein, µM: 0.0564

Item: GAACAUAAGGAUAGUAUAAUAACUACAGAAGGAGCGUCAGGAAGGACAGGUAGGUCGCUGGAAGACAUGAGGAUCACCCAUGUUU [#03 Same State - Arginine A] | apparent KD of MS2 coat protein: 0.0171

Item: UGAUGGAACGGAAGGAGCGUGUAAGAACAAGAACAUGAGGAUCACCCAUGUAUUAAUUUAACACAGGUAGGUCGCCGAGAUAUUG [11.E] | apparent KD of MS2 coat protein: 0.0135

Item: CUUGUCGUAACUGAUACCAGUGUACUGACAUGAGGAUCACCCAUGUUGGGUUUUGUUGUACACCCUUGGCAGCAGAAUCGAUAAG [AstrosExyTheB#9] | apparent KD of MS2 coat protein: 0.0713

Item: UAUAUAUGGAUGGAUACCAGCAGAGAAAACGUUUAUCCUAACAUGAGGAUCACCCAUGUAUGCCCUUGGCAGCUGUUUAUAUAUA [8.J] | apparent KD of MS2 coat protein: 0.0243
